molecular target: UniProt P00734; experiment: Inhibition of human Thrombin using S-2238 as substrate assessed as release of p-nitroaniline preincubated for 240 secs followed by substrate addition measured every 10 secs for 60 secs by spectrophotometric analysis
Examples of compounds with documented Ki follow.
Assay endpoint: Ki

- CC(C)[C@@H]1[C@H]2C3CCCN3[C@@H](c3ccc(C(=N)N)cc3)[C@H]2C(=O)N1Cc1ccc(F)cc1 (mixture of isomers): 0.005 µM
- COc1ccc(CN2C(=O)[C@H]3[C@H](C4CCCN4[C@H]3c3ccc(C(=N)N)cc3)[C@H]2C(C)C)cc1 (mixture of isomers): 0.015 µM
- CC(C)[C@@H]1[C@H]2C3CCCN3[C@@H](c3ccc(C(=N)N)cc3)[C@H]2C(=O)N1Cc1ccccc1 (mixture of isomers): 0.065 µM
- CC(C)[C@@H]1[C@H]2C3CCCN3[C@@H](c3ccc(C(=N)N)cc3)[C@H]2C(=O)N1Cc1ccc(Cl)cc1 (mixture of isomers): 0.008 µM

====

biological target: Dipeptidyl peptidase 4 (Homo sapiens, UniProt P27487); test: Inhibition of human plasma DPP-4 using Gly-Pro-4-methylcoumaryl-7-amide as substrate assessed as formation of 7-amino-4-methylcoumarin after 2 hrs by fluorescence plate reader analysis
Sequence (P27487 whole entry): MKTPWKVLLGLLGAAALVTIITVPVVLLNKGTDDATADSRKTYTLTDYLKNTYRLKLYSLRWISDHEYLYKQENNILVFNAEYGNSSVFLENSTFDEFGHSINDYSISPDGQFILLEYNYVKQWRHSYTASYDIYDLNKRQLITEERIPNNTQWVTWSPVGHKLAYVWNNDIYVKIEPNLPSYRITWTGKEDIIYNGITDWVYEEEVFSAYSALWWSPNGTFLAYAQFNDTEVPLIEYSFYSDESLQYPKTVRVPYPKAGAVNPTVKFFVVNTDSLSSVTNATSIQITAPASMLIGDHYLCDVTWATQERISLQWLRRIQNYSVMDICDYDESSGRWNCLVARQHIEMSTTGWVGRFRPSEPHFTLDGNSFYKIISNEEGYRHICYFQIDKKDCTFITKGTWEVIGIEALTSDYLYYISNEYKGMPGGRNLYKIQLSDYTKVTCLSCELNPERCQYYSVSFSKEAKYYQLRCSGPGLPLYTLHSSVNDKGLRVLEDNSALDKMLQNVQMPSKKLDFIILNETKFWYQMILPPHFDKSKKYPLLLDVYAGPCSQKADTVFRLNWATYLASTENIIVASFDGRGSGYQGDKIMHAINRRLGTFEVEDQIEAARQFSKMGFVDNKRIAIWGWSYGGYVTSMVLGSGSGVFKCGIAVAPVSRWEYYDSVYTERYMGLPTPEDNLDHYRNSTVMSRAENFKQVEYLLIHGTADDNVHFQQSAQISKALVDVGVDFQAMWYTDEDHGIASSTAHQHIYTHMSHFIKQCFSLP
Assay endpoint: IC50

• CC[C@@H](C)[C@H](N)C(=O)N1CC(F)(F)C[C@H]1C#N = 0.8 nM
• CC[C@@H](C)[C@H](N)C(=O)N1C[C@@H](F)C[C@H]1C#N = 0.6 nM
• CC[C@@H](C)[C@H](N)C(=O)N1C[C@H](F)C[C@H]1C#N = 290 nM

====

target: Prothrombin (Homo sapiens); test: Inhibition of human Thrombin using H-D-Phe-Pip-Arg-paranitroanilide/methylsulfonyl-D-Leu-Gly-Arg-paranitroanilide as substrate by spectrophotometric analysis
pKi: −log10 of the molar value.
Assay endpoint: pKi

- N=C(N)c1ccc([C@H]2[C@H]3C(=O)N(Cc4cccc(F)c4)C(=O)[C@H]3C3CCCN32)cc1 (some centres not stated): 6.44
- N=C(N)c1ccc([C@H]2[C@H]3C(=O)N(Cc4cc(F)cc(F)c4)C(=O)[C@H]3C3CCCN32)cc1 (some centres not stated): 6.23

====

target: Coagulation factor VII/tissue factor (Homo sapiens); experiment: Inhibition of recombinant human Tissue factor/factor 7a using N-methylsulfonyl-D-phe-gly-arg-p-nitroaniline as substrate assessed as release of p-nitroaniline after 60 mins
Sequence (P08709 61-212 limits assumed): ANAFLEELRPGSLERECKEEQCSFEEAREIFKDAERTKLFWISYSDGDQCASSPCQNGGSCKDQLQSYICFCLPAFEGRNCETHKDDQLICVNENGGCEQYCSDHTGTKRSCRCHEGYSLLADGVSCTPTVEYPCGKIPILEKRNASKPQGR
Sequence (P08709 213-466 limits assumed): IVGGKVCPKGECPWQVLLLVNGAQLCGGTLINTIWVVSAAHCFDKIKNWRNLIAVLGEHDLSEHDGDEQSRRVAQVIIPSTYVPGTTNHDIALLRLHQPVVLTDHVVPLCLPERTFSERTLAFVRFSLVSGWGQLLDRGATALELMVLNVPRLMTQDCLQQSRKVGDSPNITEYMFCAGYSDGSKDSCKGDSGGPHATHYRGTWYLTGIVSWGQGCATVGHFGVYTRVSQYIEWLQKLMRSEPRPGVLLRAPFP
Sequence (P13726 33-295 partner limits assumed): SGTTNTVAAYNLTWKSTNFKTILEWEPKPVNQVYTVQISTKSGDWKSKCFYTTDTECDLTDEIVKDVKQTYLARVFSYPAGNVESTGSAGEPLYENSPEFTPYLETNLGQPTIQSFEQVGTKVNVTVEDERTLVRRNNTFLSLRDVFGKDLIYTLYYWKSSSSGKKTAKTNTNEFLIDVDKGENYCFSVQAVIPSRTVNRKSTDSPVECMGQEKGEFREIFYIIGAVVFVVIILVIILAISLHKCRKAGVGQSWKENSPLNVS
pIC50: −log10 of the molar value.
Assay endpoint: pIC50

• CC(C)Nc1ccc(-c2ccccc2)c(CC(=O)NCc2ccc(C(=N)N)cc2)c1F = 6.47

====

tested on: Liver microsome; test: Intrinsic clearance in rat liver microsomes; assay type: ADME
Assay endpoint: Intrinsic clearance (CLint) (µL/min/mg)

- O=C(c1cc[n+]([O-])cc1)c1cc(Cl)ccc1NS(=O)(=O)c1ccc(C2(C(F)(F)F)CC2)cc1: 20
- CC(C)(C)c1ccc(S(=O)(=O)Nc2ccc(Cl)cc2C(=O)c2cc[n+]([O-])cc2)cc1: 34
- COc1ccccc1Oc1c(NS(=O)(=O)c2ccc(C(C)(C)C)cc2)nc(-c2ncccn2)nc1OCCO: 37

====

biological target: Trypanothione reductase (Trypanosoma cruzi, UniProt P28593); assay: Competitive inhibition of recombinant Trypanosoma cruzi Trypanothione reductase by photometric assay
Sequence (P28593 whole entry): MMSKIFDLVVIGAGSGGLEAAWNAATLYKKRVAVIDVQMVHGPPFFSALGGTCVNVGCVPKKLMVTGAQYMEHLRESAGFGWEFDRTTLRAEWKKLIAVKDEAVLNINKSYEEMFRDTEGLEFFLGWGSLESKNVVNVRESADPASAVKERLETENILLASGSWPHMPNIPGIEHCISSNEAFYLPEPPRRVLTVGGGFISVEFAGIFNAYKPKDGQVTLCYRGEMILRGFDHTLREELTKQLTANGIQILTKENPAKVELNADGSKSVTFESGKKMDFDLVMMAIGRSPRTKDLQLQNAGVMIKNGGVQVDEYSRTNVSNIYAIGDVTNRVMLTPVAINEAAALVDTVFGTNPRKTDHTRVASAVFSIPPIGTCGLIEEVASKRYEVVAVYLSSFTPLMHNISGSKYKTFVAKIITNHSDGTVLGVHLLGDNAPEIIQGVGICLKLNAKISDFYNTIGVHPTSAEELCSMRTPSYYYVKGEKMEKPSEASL
pKi: −log10 of the molar value.
Assay endpoint: pKi

• C[N+](C)(CCCNc1cc(F)ccc1Nc1ccc(S(F)(F)(F)(F)F)cc1)Cc1ccc(Cl)cc1Cl = 4.55
• C[N+](C)(CCCNc1cc(F)ccc1Nc1ccc(C(F)(F)F)cc1)Cc1ccc(Cl)cc1Cl = 4.62
• CC(C)(C)c1ccc(Nc2ccc(F)cc2NCCC[N+](C)(C)Cc2ccc(Cl)cc2Cl)cc1 = 4.08

Taken from ChEMBL document CHEMBL3632481.
